Biological target: GST-Hu-p50 (Homo sapiens, UniProt P19838 7-356)
Sequence (P19838 7-356): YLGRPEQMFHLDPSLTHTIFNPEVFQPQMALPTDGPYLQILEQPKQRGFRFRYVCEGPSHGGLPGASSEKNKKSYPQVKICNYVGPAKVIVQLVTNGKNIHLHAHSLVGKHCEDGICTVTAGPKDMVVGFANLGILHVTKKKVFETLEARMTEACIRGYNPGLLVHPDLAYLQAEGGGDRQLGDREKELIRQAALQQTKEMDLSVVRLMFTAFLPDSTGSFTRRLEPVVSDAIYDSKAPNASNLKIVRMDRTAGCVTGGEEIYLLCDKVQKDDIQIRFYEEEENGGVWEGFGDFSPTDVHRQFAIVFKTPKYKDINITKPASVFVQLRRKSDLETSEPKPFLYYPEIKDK
Experiment: protein-binding microarray (PBM); PBM: ~300 nM protein, 6 mM HEPES pH 7.8, 80 mM KCl, 0.5 mM EDTA, 0.5 mM EGTA, 6% glycerol, 35 ng/ul poly-dIdC, 1% milk, 1 h, room temperature; high values mean tight binding
Details: dsDNA, one strand shown
Each record is given y if its reported binding signal is strictly below 5 z-score. Records at or above 5 z-score are given n.

Report whether reported binding signal is lower than 5 z-score (strictly) for `CCGATTAACATCAAATTCCCAGGTGATGTTAATCGGGTCTTGATTCGCTTGACGCTGCTG`
y

Bench note: check whether `CCGATTAACATCAGGGGGAAAACTGATGTTAATCGGGTCTTGATTCGCTTGACGCTGCTG` shows binding signal below 5 z-score
n

I wonder whether `CCGATTAACATCAGGGGGAATACTGATGTTAATCGGGTCTTGATTCGCTTGACGCTGCTG` has binding signal below 5 z-score. Can you tell?
n

# TODO verify binding signal < 5 z-score strictly for this sequence: `CCGATTAACATCAAAATACCCCTTGATGTTAATCGGGTCTTGATTCGCTTGACGCTGCTG`
n

Determine if `CCGATTAACATCAGGGACTTCCATGATGTTAATCGGGTCTTGATTCGCTTGACGCTGCTG` shows binding signal strictly lower than 5 z-score.
y

---

Target: GST-Co-NF-kB (Capsaspora owczarzaki, UniProt F1ARL5 200-546)
Sequence: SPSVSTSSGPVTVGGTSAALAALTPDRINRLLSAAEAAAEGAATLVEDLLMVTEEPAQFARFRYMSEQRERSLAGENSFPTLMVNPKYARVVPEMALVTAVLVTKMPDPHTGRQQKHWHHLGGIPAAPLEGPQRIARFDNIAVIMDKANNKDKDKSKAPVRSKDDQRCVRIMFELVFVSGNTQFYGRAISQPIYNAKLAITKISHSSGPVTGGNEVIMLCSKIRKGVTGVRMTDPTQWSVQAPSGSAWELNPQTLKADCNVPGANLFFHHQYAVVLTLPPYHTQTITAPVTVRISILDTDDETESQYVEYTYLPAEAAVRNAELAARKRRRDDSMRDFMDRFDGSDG
Assay: protein-binding microarray (PBM); PBM: ~300 nM protein, 6 mM HEPES pH 7.8, 80 mM KCl, 0.5 mM EDTA, 0.5 mM EGTA, 6% glycerol, 35 ng/ul poly-dIdC, 1% milk, 1 h, room temperature; high values mean tight binding
Details: dsDNA, one strand shown
Answer each item with its documented binding signal.
# value in z-score; strip the unit string

Consider the sequence `CCGATTAACATCACGTTATTCCCTGATGTTAATCGGGTCTTGATTCGCTTGACGCTGCTG` and give its measured binding signal.
2.74

Given the entry `CCGATTAACATCAGGGAGTCCCATGATGTTAATCGGGTCTTGATTCGCTTGACGCTGCTG` , report its measured binding signal.
1.13

Any idea what its binding signal is? The sequence is `CCGATTAACATCAATTGGGAAATTGATGTTAATCGGGTCTTGATTCGCTTGACGCTGCTG`
1.8

Entry `CCGATTAACATCAGGCTTTCCCCTGATGTTAATCGGGTCTTGATTCGCTTGACGCTGCTG` has what binding signal?
4.87

Which binding signal reading was recorded for the sequence `CCGATTAACATCAAAAAACCCCATGATGTTAATCGGGTCTTGATTCGCTTGACGCTGCTG` ?
2.59

---

Molecular target: GST-Nv-NF-kB (Cys allele) (Nematostella vectensis, UniProt E5G601 2-411)
Sequence: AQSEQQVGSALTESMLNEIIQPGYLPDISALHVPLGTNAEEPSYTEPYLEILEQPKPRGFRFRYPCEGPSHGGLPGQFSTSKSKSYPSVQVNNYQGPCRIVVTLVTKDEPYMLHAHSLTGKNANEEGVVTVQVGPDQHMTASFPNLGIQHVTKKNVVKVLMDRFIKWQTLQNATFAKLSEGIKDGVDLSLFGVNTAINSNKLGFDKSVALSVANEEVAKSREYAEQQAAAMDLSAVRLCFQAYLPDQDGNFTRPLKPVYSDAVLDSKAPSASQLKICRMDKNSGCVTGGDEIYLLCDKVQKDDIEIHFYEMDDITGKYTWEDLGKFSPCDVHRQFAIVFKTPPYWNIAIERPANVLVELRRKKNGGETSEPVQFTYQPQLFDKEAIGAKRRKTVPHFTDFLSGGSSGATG
Test: protein-binding microarray (PBM); PBM: ~300 nM protein, 6 mM HEPES pH 7.8, 80 mM KCl, 0.5 mM EDTA, 0.5 mM EGTA, 6% glycerol, 35 ng/ul poly-dIdC, 1% milk, 1 h, room temperature; high values mean tight binding
Conditions: dsDNA, one strand shown
outcome_measure: binding signal (z-score)
Please state the figure in z-score; there is no need to write the unit.

Report binding signal for `CCGATTAACATCAAAATAGTCCCTGATGTTAATCGGGTCTTGATTCGCTTGACGCTGCTG` please.
7.77

Looking for the measured binding signal of `CCGATTAACATCACGGGGAGTCCTGATGTTAATCGGGTCTTGATTCGCTTGACGCTGCTG` , can you help?
3.95

Which binding signal is listed for `CCGATTAACATCACGTCCCCCCCTGATGTTAATCGGGTCTTGATTCGCTTGACGCTGCTG` ?
4.27

Fill in: binding signal of `CCGATTAACATCAGGGGAAACACTGATGTTAATCGGGTCTTGATTCGCTTGACGCTGCTG` is ___
8.15

Look up binding signal for this sequence: `CCGATTAACATCAGAATTTTCCCTGATGTTAATCGGGTCTTGATTCGCTTGACGCTGCTG`
7.42

Form field: reported binding signal of `CCGATTAACATCAAGGGGGGATGTGATGTTAATCGGGTCTTGATTCGCTTGACGCTGCTG`
4.01

For the sequence `CCGATTAACATCAGGGGCTTCACTGATGTTAATCGGGTCTTGATTCGCTTGACGCTGCTG` , what binding signal is on record?
3.35

Please look up its binding signal: `CCGATTAACATCAGGGAAACTTATGATGTTAATCGGGTCTTGATTCGCTTGACGCTGCTG`
6.28

For the sequence shown here, `CCGATTAACATCAAAAACTCCCATGATGTTAATCGGGTCTTGATTCGCTTGACGCTGCTG` , give the reported binding signal.
5.15

---

Target: GST-Aq-NF-kB (Amphimedon queenslandica, UniProt A9Y5G7 2-389)
Sequence: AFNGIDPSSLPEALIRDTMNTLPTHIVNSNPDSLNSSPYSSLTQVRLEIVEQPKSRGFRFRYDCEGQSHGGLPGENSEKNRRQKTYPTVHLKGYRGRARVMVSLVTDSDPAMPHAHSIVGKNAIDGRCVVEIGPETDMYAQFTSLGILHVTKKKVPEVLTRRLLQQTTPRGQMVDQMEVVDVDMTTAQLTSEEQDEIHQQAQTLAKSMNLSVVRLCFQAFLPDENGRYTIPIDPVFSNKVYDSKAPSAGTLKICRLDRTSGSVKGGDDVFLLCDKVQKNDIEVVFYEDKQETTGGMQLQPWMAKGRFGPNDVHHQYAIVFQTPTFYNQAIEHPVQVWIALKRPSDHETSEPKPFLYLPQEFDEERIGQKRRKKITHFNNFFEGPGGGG
Test: protein-binding microarray (PBM); PBM: ~300 nM protein, 6 mM HEPES pH 7.8, 80 mM KCl, 0.5 mM EDTA, 0.5 mM EGTA, 6% glycerol, 35 ng/ul poly-dIdC, 1% milk, 1 h, room temperature; Ap Aiptasia and Nv Nematostella (sea anemones) / Co Capsaspora / Aq Amphimedon (sponge) / Dm Drosophila / Hu human; RHD is the Rel homology domain; high values mean tight binding
Conditions: dsDNA, one strand shown
outcome_measure: binding signal
The reply should consist of the numeric value with the unit placed after it.

For `CCGATTAACATCAGGGGTATAACTGATGTTAATCGGGTCTTGATTCGCTTGACGCTGCTG` , what is its reported binding signal?
2.25 z-score

Recorded binding signal for `CCGATTAACATCAAATTCCCAGGTGATGTTAATCGGGTCTTGATTCGCTTGACGCTGCTG` , please?
2.4 z-score

// returns reported binding signal for input `CCGATTAACATCACGAAAGTCCCTGATGTTAATCGGGTCTTGATTCGCTTGACGCTGCTG`
5.78 z-score

What value of measured binding signal is listed for `CCGATTAACATCAGGACTTTCCATGATGTTAATCGGGTCTTGATTCGCTTGACGCTGCTG` ?
4.23 z-score

I am curious: what binding signal value has been reported for `CCGATTAACATCAGGAAATACCATGATGTTAATCGGGTCTTGATTCGCTTGACGCTGCTG` ?
3.27 z-score

What value of binding signal has been recorded for this entry: `CCGATTAACATCAGGGGAAATACTGATGTTAATCGGGTCTTGATTCGCTTGACGCTGCTG`
7.18 z-score

Return reported binding signal; argument: `CCGATTAACATCAAAGATCCCCCTGATGTTAATCGGGTCTTGATTCGCTTGACGCTGCTG`
6.88 z-score

Which binding signal value is on record for `CCGATTAACATCAGGAGCCCCCCTGATGTTAATCGGGTCTTGATTCGCTTGACGCTGCTG` ?
5.04 z-score

Param item = `CCGATTAACATCAAAAAACTCCCTGATGTTAATCGGGTCTTGATTCGCTTGACGCTGCTG` ; retrieve measured binding signal.
7.46 z-score

All values here come from paper PMC5700166.
